Kindly state ED50 for each of the entries shown.
- Test Target: UniProtKB P11473
- Sequence (P11473 whole entry): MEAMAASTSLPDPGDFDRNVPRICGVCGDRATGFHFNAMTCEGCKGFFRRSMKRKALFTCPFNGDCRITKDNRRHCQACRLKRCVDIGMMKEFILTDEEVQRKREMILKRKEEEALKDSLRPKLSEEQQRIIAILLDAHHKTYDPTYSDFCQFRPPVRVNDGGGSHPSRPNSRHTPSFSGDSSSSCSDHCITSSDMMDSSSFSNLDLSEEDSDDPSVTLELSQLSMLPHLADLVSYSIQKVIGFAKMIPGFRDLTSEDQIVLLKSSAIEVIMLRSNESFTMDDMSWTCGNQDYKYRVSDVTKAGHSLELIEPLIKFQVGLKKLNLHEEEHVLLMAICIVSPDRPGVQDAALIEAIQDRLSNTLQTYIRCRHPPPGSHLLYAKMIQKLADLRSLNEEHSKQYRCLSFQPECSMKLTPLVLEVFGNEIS
- Assay Procedure: Vitamin D3 agonistic activity as effective dose for HL-60 monocytic cell differentiation
- Assay type: functional, cell-based
Your answer is read as nM, so omit the unit and give the number.

Prompt: Consider the compound `CCC(CC)(c1ccc(O)c(C)c1)c1ccc(NCC(=O)C(C)(C)C)c(C)c1` . State its measured ED50.
Completion: 1500

Prompt: Consider the compound `CCC(CC)(c1ccc(NCC(=O)C(C)(C)C)c(C)c1)c1ccc(OCC(=O)C(C)(C)C)c(C)c1` . State its measured ED50.
Completion: 450

Prompt: Consider the compound `CCC(CC)(c1ccc(OCC(=O)C(C)(C)C)c(C)c1)c1ccc(OCC(=O)C(C)(C)C)c(C)c1` . State its measured ED50.
Completion: 410

Prompt: Consider the compound CCC(CC)(c1ccc(OCC(O)CO)c(C)c1)c1ccc(OCC(O)C(C)(C)C)c(C)c1 (stereo not given) . State its measured ED50.
Completion: 44

Prompt: Consider the compound `CCC(CC)(c1ccc(NCCC(C)(C)O)c(C)c1)c1ccc(NCCC(C)(C)O)c(C)c1` . State its measured ED50.
Completion: 900

Prompt: Consider the compound CCC(CC)(c1ccc(NCC(O)CO)c(C)c1)c1ccc(OCC(O)C(C)(C)C)c(C)c1 (stereo not given) . State its measured ED50.
Completion: 52

Prompt: Consider the compound `CCC(CC)(c1ccc(NCCC(C)(C)O)c(C)c1)c1ccc(OCC(=O)C(C)(C)C)c(C)c1` . State its measured ED50.
Completion: 370

Prompt: Consider the compound CCC(CC)(c1ccc(NCC(O)C(C)(C)C)c(C)c1)c1ccc(NCC(O)C(C)(C)C)c(C)c1 (stereo not given) . State its measured ED50.
Completion: 1200

Prompt: Consider the compound `CCC(CC)(c1ccc(NCC(=O)C(C)(C)C)c(C)c1)c1ccc(NCC(=O)C(C)(C)C)c(C)c1` . State its measured ED50.
Completion: 450

Prompt: Consider the compound CCC(CC)(c1ccc(NCC(O)CO)c(C)c1)c1ccc(OCC(=O)C(C)(C)C)c(C)c1 (stereo not given) . State its measured ED50.
Completion: 110

FYI, the data here is from ChEMBL document CHEMBL1141063.
